# ASSAY PROCEDURE: Pharmacokinetics study of KPT-335 in cats (i.v. injection, p.o. capsules and tablets; UPLC-MS/MS, non-compartmental analysis)
# Type: in vivo
# CONDITION INFO: both sexes, cat, plasma, po, 2 mg/kg, cats, capsule p.o. 2 mg/kg BW, 1.5 h, mean; read-out: Plasma concentration Mean
MEASURED PARAMETER: concentration at 1.5 h (ng/mL)
API: value field is a number in ng/mL; no unit string.

*Q* Look at this molecule and give its reported concentration at 1.5 h. O=C(/C=C\n1cnc(-c2cc(C(F)(F)F)cc(C(F)(F)F)c2)n1)NNc1ccccn1
*A* 272
